Assay: PET hydrolysis product formed (TPA+MHET+BHET, UV-Vis) per mg enzyme (mmol/mg enzyme); higher = more PET depolymerisation activity; extreme values may be limits of the assay
Conditions: PET substrate: aFilm; 70 °C; pH 6.5; 2 h
I'd be grateful if you could share measured PET hydrolysis product formed for these entries.
Answers are plain numbers.

Solved entries:
- QUERY SEQUENCE: "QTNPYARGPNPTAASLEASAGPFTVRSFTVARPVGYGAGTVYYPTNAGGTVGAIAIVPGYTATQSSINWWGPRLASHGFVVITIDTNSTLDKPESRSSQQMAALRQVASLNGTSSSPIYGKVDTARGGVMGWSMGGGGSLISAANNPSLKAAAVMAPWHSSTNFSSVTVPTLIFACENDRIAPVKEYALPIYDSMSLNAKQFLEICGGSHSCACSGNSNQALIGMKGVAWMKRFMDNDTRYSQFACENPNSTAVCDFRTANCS [HotPETase]"
  VAL: 0.00383
- QUERY SEQUENCE: "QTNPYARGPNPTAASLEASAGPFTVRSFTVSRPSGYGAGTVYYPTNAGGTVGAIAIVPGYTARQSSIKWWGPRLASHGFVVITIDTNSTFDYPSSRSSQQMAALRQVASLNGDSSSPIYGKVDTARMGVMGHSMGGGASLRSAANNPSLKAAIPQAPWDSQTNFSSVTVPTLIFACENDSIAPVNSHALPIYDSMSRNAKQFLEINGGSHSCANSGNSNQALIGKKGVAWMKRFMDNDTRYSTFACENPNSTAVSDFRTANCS [DuraPETase]"
  VAL: 0
- QUERY SEQUENCE: "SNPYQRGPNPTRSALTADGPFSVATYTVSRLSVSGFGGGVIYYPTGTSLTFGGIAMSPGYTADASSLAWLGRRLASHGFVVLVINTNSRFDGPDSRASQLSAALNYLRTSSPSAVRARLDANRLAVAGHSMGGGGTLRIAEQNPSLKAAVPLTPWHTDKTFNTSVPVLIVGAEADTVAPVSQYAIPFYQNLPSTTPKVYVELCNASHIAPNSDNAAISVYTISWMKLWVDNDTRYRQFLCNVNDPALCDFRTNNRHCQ [LCC-A2]"
  VAL: 0.138
- QUERY SEQUENCE: "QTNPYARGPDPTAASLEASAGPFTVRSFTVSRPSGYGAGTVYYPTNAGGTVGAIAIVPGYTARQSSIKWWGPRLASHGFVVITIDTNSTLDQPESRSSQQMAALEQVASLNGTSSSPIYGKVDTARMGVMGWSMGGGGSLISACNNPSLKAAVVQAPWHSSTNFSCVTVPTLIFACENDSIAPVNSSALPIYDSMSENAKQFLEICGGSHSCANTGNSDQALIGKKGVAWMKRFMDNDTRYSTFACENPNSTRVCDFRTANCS [Z1-PETase]"
  VAL: 0
- QUERY SEQUENCE: "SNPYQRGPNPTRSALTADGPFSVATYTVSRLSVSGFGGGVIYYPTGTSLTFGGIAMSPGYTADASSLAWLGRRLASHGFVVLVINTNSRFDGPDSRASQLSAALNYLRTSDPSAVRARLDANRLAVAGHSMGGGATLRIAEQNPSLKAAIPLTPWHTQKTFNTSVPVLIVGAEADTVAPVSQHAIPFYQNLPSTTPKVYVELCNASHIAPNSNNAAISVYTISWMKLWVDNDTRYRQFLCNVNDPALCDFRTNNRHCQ [LCC-ICCG DAQI]"
  VAL: 0.0829

Please go through the list and note PET hydrolysis product formed for each sequence.
1. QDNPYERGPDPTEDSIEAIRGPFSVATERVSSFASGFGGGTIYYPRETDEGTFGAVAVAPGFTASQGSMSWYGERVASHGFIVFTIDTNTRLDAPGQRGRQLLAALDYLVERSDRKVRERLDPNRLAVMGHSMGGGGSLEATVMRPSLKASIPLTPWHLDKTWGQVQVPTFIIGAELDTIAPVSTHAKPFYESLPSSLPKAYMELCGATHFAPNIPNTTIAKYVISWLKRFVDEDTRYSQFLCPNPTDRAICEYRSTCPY [Cut190*SS]
2. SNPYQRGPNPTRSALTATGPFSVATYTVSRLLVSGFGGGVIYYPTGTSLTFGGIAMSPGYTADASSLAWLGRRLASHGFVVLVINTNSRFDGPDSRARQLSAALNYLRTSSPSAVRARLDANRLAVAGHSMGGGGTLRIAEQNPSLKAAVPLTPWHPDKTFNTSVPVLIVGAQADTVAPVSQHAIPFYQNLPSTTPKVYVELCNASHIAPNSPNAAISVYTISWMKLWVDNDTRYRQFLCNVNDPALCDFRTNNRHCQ [LCC-ICCG I6M]
3. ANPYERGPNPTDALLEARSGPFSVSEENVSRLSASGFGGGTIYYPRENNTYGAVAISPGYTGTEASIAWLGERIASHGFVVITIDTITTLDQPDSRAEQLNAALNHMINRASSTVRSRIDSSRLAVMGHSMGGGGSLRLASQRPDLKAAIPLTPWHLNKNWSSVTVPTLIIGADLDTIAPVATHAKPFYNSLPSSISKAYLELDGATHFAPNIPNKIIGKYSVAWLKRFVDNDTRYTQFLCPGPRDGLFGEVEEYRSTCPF [TfCut2]
4. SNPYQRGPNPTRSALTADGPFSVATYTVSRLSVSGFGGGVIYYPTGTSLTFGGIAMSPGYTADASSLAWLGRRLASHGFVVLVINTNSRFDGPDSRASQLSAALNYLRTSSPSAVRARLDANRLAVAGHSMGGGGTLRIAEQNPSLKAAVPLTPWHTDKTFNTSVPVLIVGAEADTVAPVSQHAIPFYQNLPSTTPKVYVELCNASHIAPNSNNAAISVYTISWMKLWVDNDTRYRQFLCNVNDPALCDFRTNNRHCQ [LCC-ICCG]

OUT:
0
0.057
0
0.0873

Would you be so kind as to report PET hydrolysis product formed for each listed record?
1. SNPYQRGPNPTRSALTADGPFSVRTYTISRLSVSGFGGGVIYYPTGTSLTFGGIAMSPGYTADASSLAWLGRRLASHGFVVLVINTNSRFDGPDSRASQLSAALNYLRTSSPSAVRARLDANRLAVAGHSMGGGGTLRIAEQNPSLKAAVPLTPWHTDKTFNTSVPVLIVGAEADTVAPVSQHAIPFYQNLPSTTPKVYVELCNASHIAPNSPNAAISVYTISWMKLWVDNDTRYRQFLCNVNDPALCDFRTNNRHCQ [LCC-ICCG RIP]
2. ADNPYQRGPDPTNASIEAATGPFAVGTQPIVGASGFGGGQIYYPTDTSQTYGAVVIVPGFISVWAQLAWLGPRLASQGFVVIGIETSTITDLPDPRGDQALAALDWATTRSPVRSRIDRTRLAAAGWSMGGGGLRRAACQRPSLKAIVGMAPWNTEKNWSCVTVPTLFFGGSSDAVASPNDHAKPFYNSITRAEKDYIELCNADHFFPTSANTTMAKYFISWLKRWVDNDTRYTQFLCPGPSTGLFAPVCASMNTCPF [CaPETaseM9]

OUT:
0.0606
0

###

Experiment: terephthalic acid (TPA) released, HPLC; higher = more TPA released; extreme values may be limits of the assay
Conditions: PET substrate: aFilm; 60 °C; pH 5.5; 24 h
Could you please report measured terephthalic acid for the items listed next?
Please state the value followed by its unit.

Some entries whose results are on file:
- QUERY SEQUENCE: "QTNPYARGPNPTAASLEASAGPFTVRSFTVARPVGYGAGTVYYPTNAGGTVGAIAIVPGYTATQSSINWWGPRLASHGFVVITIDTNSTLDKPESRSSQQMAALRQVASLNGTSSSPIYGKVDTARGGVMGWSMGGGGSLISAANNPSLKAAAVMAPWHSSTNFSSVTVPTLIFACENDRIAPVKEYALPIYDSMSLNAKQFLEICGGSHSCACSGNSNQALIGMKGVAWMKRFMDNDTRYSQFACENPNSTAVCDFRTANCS [HotPETase]"
  terephthalic acid: "0.359 mM"
- QUERY SEQUENCE: "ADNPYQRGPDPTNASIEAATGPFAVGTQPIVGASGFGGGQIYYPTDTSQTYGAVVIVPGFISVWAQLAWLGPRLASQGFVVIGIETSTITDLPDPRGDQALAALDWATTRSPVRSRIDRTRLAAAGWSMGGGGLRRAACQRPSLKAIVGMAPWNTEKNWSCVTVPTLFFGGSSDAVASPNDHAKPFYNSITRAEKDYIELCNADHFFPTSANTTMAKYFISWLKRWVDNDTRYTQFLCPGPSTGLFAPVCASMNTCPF [CaPETaseM9]"
  terephthalic acid: "0.0407 mM"

Shifting focus to the sequence that follows.
IN: Answer with reported terephthalic acid of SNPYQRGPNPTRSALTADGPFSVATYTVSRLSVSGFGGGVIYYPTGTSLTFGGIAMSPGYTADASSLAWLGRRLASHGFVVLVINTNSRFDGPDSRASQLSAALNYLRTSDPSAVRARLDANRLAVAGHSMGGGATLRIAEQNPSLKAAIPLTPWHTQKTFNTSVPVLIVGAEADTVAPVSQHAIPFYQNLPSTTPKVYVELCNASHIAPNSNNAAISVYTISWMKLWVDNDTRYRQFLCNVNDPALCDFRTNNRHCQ [LCC-ICCG DAQI]
OUT: 0.279 mM
